- Test system: SF-268
- assay_overview: NCI60 one-dose screen
- Type: cell-based
- test_context: Homo sapiens; SF-268, 10 μM; read-out: Growth percent
measure: activity at 10 µM (%)
Reply numerically in %, unit not repeated.

Any idea what activity at 10 µM came out for O=c1cc(-c2ccccc2)oc2cc(OCCCC[P+](c3ccccc3)(c3ccccc3)c3ccccn3)cc(O)c12 on SF-268?
-67.6

Any idea what activity at 10 µM came out for COc1ccc([P+](CCCCOc2cc(O)c3c(=O)cc(-c4ccccc4)oc3c2)(c2ccc(OC)cc2)c2ccc(OC)cc2)cc1 on SF-268?
-38.3

Any idea what activity at 10 µM came out for Cc1ccc([P+](CCCCOc2cc(O)c3c(=O)cc(-c4ccccc4)oc3c2)(c2ccc(C)cc2)c2ccc(C)cc2)cc1 on SF-268?
-61.3

Any idea what activity at 10 µM came out for COc1c(C)cc([P+](CCCCOc2cc(O)c3c(=O)cc(-c4ccccc4)oc3c2)(c2cc(C)c(OC)c(C)c2)c2cc(C)c(OC)c(C)c2)cc1C on SF-268?
-66.5

###

- Test system: SF-539
- assay_overview: NCI60 five-dose screen
- Type: cell-based
- test_context: Homo sapiens; SF-539, CNS Cancer
measure: GI50 (nM)
Reply numerically in nM, unit not repeated.

// returns reported GI50 for input COc1c(C)cc([P+](CCCCOc2cc(O)c3c(=O)cc(-c4ccccc4)oc3c2)(c2cc(C)c(OC)c(C)c2)c2cc(C)c(OC)c(C)c2)cc1C
367

// returns reported GI50 for input O=c1cc(-c2ccccc2)oc2cc(OCCCC[P+](c3ccc(F)cc3)(c3ccc(F)cc3)c3ccc(F)cc3)cc(O)c12
1930

// returns reported GI50 for input O=c1cc(-c2ccccc2)oc2cc(OCCCC[P+](c3ccccc3)(c3ccccc3)c3ccccc3)cc(O)c12
380

// returns reported GI50 for input Cc1ccc([P+](CCCCOc2cc(O)c3c(=O)cc(-c4ccccc4)oc3c2)(c2ccc(C)cc2)c2ccc(C)cc2)cc1
498

###

- Tested on: SK-MEL-28
- assay_overview: NCI60 one-dose screen
- Format: cell-based
- test_context: Homo sapiens; SK-MEL-28, 10 μM; read-out: Growth percent
- Protocol: The screening results are presented in the Supplementary Materials (Table S1), where the cytotoxicity was determined for the 10 µM concentration. […] The negative numbers indicate significant decreases in the cell number. […] Following drug addition, the plates were incubated at 37 °C, 5% carbon dioxide, 95% air, and 100% relative humidity for an additional 48 hours. […] Growth inhibition (%) was calculated as: […]
measure: activity at 10 µM
Report field: quantity (unit follows the number).

// returns reported activity at 10 µM for input O=c1cc(-c2ccccc2)oc2cc(OCCCC[P+](c3ccc(F)cc3)(c3ccc(F)cc3)c3ccc(F)cc3)cc(O)c12 [3d]
-92%

// returns reported activity at 10 µM for input O=c1cc(-c2ccccc2)oc2cc(OCCCC[P+](C3CCCCC3)(C3CCCCC3)C3CCCCC3)cc(O)c12 [3e]
-41.4%

// returns reported activity at 10 µM for input Cc1ccc([P+](CCCCOc2cc(O)c3c(=O)cc(-c4ccccc4)oc3c2)(c2ccc(C)cc2)c2ccc(C)cc2)cc1 [3b]
-85.3%

// returns reported activity at 10 µM for input O=c1cc(-c2ccccc2)oc2cc(O)cc(O)c12 [compound 2, 5,7-dihydroxyflavone, reference compound]
102%

// returns reported activity at 10 µM for input O=c1cc(-c2ccccc2)oc2cc(OCCCC[P+](c3ccccc3)(c3ccccc3)c3ccccn3)cc(O)c12 [3h]
-94.7%

###

measure: GI50 (µM)
Reply numerically in µM, unit not repeated.

Any idea what GI50 came out for COc1ccc([P+](CCCCOc2cc(O)c3c(=O)cc(-c4ccccc4)oc3c2)(c2ccc(OC)cc2)c2ccc(OC)cc2)cc1 on Ovarian Cancer panel?
0.76

Any idea what GI50 came out for Cc1ccc([P+](CCCCOc2cc(O)c3c(=O)cc(-c4ccccc4)oc3c2)(c2ccc(C)cc2)c2ccc(C)cc2)cc1 on Ovarian Cancer panel?
0.48

Any idea what GI50 came out for O=c1cc(-c2ccccc2)oc2cc(OCCCC[P+](c3ccccc3)(c3ccccc3)c3ccccn3)cc(O)c12 on Ovarian Cancer panel?
1.89

Any idea what GI50 came out for O=c1cc(-c2ccccc2)oc2cc(OCCCC[P+](c3ccc(F)cc3)(c3ccc(F)cc3)c3ccc(F)cc3)cc(O)c12 on Ovarian Cancer panel?
3.9

Any idea what GI50 came out for O=c1cc(-c2ccccc2)oc2cc(OCCCC[P+](C3CCCCC3)(C3CCCCC3)C3CCCCC3)cc(O)c12 on Ovarian Cancer panel?
1.95

Any idea what GI50 came out for O=c1cc(-c2ccccc2)oc2cc(OCCCC[P+](c3ccccc3)(c3ccccc3)c3ccccc3)cc(O)c12 on Ovarian Cancer panel?
0.89

Any idea what GI50 came out for Cc1ccccc1[P+](CCCCOc1cc(O)c2c(=O)cc(-c3ccccc3)oc2c1)(c1ccccc1C)c1ccccc1C on Ovarian Cancer panel?
0.82

Any idea what GI50 came out for COc1c(C)cc([P+](CCCCOc2cc(O)c3c(=O)cc(-c4ccccc4)oc3c2)(c2cc(C)c(OC)c(C)c2)c2cc(C)c(OC)c(C)c2)cc1C on Ovarian Cancer panel?
0.51

###

Would you kindly list GI50 for each of these compounds?
Reply numerically in nM, unit not repeated.

Any idea what GI50 came out for O=c1cc(-c2ccccc2)oc2cc(OCCCC[P+](c3ccc(F)cc3)(c3ccc(F)cc3)c3ccc(F)cc3)cc(O)c12 [3d] on HS 578T?
1980

Any idea what GI50 came out for Cc1ccccc1[P+](CCCCOc1cc(O)c2c(=O)cc(-c3ccccc3)oc2c1)(c1ccccc1C)c1ccccc1C [3g] on HS 578T?
232

Any idea what GI50 came out for O=c1cc(-c2ccccc2)oc2cc(OCCCC[P+](c3ccccc3)(c3ccccc3)c3ccccc3)cc(O)c12 [3a] on HS 578T?
306

Any idea what GI50 came out for Cc1ccc([P+](CCCCOc2cc(O)c3c(=O)cc(-c4ccccc4)oc3c2)(c2ccc(C)cc2)c2ccc(C)cc2)cc1 [3b] on HS 578T?
366

Any idea what GI50 came out for O=c1cc(-c2ccccc2)oc2cc(OCCCC[P+](c3ccccc3)(c3ccccc3)c3ccccn3)cc(O)c12 [3h] on HS 578T?
1130

Any idea what GI50 came out for O=c1cc(-c2ccccc2)oc2cc(OCCCC[P+](C3CCCCC3)(C3CCCCC3)C3CCCCC3)cc(O)c12 [3e] on HS 578T?
838

Any idea what GI50 came out for COc1ccc([P+](CCCCOc2cc(O)c3c(=O)cc(-c4ccccc4)oc3c2)(c2ccc(OC)cc2)c2ccc(OC)cc2)cc1 [3c] on HS 578T?
332

Any idea what GI50 came out for COc1c(C)cc([P+](CCCCOc2cc(O)c3c(=O)cc(-c4ccccc4)oc3c2)(c2cc(C)c(OC)c(C)c2)c2cc(C)c(OC)c(C)c2)cc1C [3f] on HS 578T?
361

###

Would you kindly list activity at 10 µM for each of these molecules?
- System: IGROV1
- assay_overview: NCI60 one-dose screen
- Type: cell-based
- test_context: Homo sapiens, IGROV-1; IGROV1, 10 μM; read-out: Growth percent
Report field: quantity (unit follows the number).

// returns reported activity at 10 µM for input O=c1cc(-c2ccccc2)oc2cc(O)cc(O)c12 [compound 2, 5,7-dihydroxyflavone, reference compound]
95.2%

// returns reported activity at 10 µM for input COc1c(C)cc([P+](CCCCOc2cc(O)c3c(=O)cc(-c4ccccc4)oc3c2)(c2cc(C)c(OC)c(C)c2)c2cc(C)c(OC)c(C)c2)cc1C
-38%

// returns reported activity at 10 µM for input COc1ccc([P+](CCCCOc2cc(O)c3c(=O)cc(-c4ccccc4)oc3c2)(c2ccc(OC)cc2)c2ccc(OC)cc2)cc1
-6.99%

// returns reported activity at 10 µM for input O=c1cc(-c2ccccc2)oc2cc(OCCCC[P+](c3ccc(F)cc3)(c3ccc(F)cc3)c3ccc(F)cc3)cc(O)c12
-64%

// returns reported activity at 10 µM for input O=c1cc(-c2ccccc2)oc2cc(OCCCC[P+](C3CCCCC3)(C3CCCCC3)C3CCCCC3)cc(O)c12
-59.4%

// returns reported activity at 10 µM for input O=c1cc(-c2ccccc2)oc2cc(OCCCC[P+](c3ccccc3)(c3ccccc3)c3ccccn3)cc(O)c12
-80.1%

// returns reported activity at 10 µM for input O=c1cc(-c2ccccc2)oc2cc(OCCCC[P+](c3ccccc3)(c3ccccc3)c3ccccc3)cc(O)c12
-75.7%

// returns reported activity at 10 µM for input Cc1ccc([P+](CCCCOc2cc(O)c3c(=O)cc(-c4ccccc4)oc3c2)(c2ccc(C)cc2)c2ccc(C)cc2)cc1
-46.9%

// returns reported activity at 10 µM for input Cc1ccccc1[P+](CCCCOc1cc(O)c2c(=O)cc(-c3ccccc3)oc2c1)(c1ccccc1C)c1ccccc1C
-99.1%

The values you see were collected from paper PMC12652692.
